Where do the numbers come from? From ChEMBL document CHEMBL4834402.

Below, each entry is listed with its recorded IC50.
target: SUMO-activating enzyme (Homo sapiens, UniProt Q9UBT2); assay: Inhibition of SAE in human HCT116 cells assessed as reduction in redistribution of SUMO2/3 proteins from nucleus to cytosol incubated for 4 hrs by immunofluorescence assay; type: cell-based, HCT-116
Sequence (Q9UBE0 whole entry): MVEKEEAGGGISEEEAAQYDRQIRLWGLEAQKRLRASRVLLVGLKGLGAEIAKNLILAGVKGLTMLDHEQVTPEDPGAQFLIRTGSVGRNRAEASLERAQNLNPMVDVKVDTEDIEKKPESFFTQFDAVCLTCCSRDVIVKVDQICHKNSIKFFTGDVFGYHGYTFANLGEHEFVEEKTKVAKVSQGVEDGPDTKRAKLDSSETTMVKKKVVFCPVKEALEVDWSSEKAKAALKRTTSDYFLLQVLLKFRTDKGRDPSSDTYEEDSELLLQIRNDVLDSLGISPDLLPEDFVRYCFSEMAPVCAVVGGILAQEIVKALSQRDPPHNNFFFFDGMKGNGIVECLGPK
Sequence (Q9UBT2 whole entry): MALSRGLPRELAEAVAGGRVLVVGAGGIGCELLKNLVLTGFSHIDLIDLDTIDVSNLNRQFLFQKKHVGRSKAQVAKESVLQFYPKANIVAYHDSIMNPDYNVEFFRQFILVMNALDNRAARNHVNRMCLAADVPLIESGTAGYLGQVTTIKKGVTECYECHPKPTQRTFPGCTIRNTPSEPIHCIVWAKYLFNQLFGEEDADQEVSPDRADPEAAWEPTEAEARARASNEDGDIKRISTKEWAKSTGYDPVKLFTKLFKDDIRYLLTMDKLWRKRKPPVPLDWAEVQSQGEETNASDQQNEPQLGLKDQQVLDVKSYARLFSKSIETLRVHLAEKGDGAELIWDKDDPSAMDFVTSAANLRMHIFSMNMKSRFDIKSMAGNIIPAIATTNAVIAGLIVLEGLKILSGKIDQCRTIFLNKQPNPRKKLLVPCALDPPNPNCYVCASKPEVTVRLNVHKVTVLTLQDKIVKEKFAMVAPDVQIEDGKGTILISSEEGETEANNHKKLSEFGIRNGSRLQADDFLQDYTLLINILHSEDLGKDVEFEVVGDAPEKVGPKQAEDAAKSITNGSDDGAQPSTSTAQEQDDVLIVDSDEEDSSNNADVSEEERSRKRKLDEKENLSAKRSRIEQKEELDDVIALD
propertyMeasured: IC50 (nM)

1) NS(=O)(=O)OC[C@H]1C[C@@H](Nc2ncncc2C(=O)c2cc(C3OCCc4c(Cl)cccc43)cs2)C[C@@H]1O (stereo partly specified)    76
2) Cc1sc(C(=O)c2cncnc2N[C@@H]2C[C@H](COS(N)(=O)=O)[C@@H](O)C2)cc1[C@H]1NCCc2ccc(Cl)cc21    399
3) NS(=O)(=O)OC[C@H]1C[C@@H](Nc2ncncc2C(=O)c2ccn(Cc3cccc(Br)c3)c2)C[C@@H]1O    14
4) C#Cc1cccc(Cn2ccc(C(=O)c3cncnc3N[C@@H]3C[C@H](COS(N)(=O)=O)[C@@H](O)C3)n2)c1    22
5) NS(=O)(=O)OC[C@H]1C[C@@H](Nc2ncncc2C(=O)c2cc(C(O)c3cccc(Cl)c3)cs2)C[C@@H]1O (stereo in doubt; 30)    660
6) NS(=O)(=O)OC[C@H]1C[C@@H](Nc2ncncc2C(=O)c2cc(C3NCCc4ccc(Cl)cc43)c(Cl)s2)C[C@@H]1O (stereo partly specified)    7

* * *

molecular target: NEDD8 activating enzyme (Homo sapiens, UniProt Q8TBC4); assay: Inhibition of recombinant NAE (unknown origin) in presence of ATP at Km concentration by HTRF assay; assay type: protein-complex assay
Sequence (Q8TBC4 whole entry): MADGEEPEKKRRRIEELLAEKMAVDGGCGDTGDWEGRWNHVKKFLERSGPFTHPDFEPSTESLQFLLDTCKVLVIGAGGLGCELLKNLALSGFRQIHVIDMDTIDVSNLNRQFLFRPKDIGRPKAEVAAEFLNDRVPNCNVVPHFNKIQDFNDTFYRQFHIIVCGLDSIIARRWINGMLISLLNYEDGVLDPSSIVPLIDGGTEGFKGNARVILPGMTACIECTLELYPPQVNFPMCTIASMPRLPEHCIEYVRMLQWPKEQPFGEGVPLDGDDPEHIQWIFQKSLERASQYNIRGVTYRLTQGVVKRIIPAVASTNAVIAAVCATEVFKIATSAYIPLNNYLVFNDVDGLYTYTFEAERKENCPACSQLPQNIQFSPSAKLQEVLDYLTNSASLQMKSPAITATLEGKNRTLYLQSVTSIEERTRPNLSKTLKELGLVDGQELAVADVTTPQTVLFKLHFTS
Sequence (Q13564 whole entry, further chain): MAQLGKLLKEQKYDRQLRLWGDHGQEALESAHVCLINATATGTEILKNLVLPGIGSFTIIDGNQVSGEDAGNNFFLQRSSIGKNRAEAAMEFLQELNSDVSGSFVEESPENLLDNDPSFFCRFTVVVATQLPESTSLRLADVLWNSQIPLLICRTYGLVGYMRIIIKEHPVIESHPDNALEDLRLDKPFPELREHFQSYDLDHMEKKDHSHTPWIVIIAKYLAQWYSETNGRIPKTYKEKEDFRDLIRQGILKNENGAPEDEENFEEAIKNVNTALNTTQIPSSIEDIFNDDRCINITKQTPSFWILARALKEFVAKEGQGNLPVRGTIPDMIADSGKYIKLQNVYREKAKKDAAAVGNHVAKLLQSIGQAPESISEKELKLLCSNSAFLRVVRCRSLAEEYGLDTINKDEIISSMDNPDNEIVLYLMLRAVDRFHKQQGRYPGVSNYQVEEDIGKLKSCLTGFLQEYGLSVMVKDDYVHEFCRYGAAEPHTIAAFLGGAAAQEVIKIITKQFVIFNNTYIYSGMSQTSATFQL
Below, each entry is listed with its recorded IC50.
propertyMeasured: IC50

1. CN(C)C(c1cccc(Cl)c1)c1csc(C(=O)c2cncnc2N[C@@H]2C[C@H](COS(N)(=O)=O)[C@@H](O)C2)c1 (stereo partly drawn)    > 1 µM
2. NS(=O)(=O)OC[C@H]1C[C@@H](Nc2ncncc2C(=O)c2ccn(Cc3ccc(Cl)cc3)n2)C[C@@H]1O    > 1 µM
3. NS(=O)(=O)OC[C@H]1C[C@@H](Nc2ncncc2C(=O)c2ccn(Cc3ccccc3)n2)C(F)(F)[C@@H]1O    > 1 µM

* * *

biological target: UniProt Q9UBT2; test: Inhibition of recombinant SAE (unknown origin) assessed as reduction in transfer of SUMO1 to UBC9 using SUMO1 as a substrate in presence of ATP at Km concentration by HTRF assay; assay type: protein-complex assay
pIC50: −log10 of the molar value.
propertyMeasured: pIC50

1) NS(=O)(=O)OC[C@H]1C[C@@H](Nc2ncncc2C(=O)c2cc(C3NCCc4ccc(Cl)cc43)cs2)C[C@@H]1O (some centres not stated)    9.10
2) NS(=O)(=O)OC[C@H]1C[C@@H](Nc2ncncc2C(=O)c2cc(C3NCCc4ccccc43)cs2)C[C@@H]1O (some centres not stated)    9.00
3) NS(=O)(=O)OC[C@H]1C[C@@H](Nc2ncncc2C(=O)c2cc(C3OCCc4c(Cl)cccc43)cs2)C[C@@H]1O (some centres not stated)    8.77
4) NS(=O)(=O)OC[C@H]1C[C@@H](Nc2ncncc2C(=O)c2ccn(Cc3cccc(Br)n3)n2)C[C@@H]1O    9.15
5) Cc1sc(C(=O)c2cncnc2N[C@@H]2C[C@H](COS(N)(=O)=O)[C@@H](O)C2)cc1[C@@H]1NCCc2ccc(Cl)cc21    9.00
6) Cc1sc(C(=O)c2cncnc2N[C@@H]2C[C@H](COS(N)(=O)=O)[C@@H](O)C2)cc1Cc1cccc(Cl)c1    8.92
7) NC(c1cccc(Cl)c1)c1csc(C(=O)c2cncnc2N[C@@H]2C[C@H](COS(N)(=O)=O)[C@@H](O)C2)c1 (stereo in doubt; 33)    9.15

* * *

target: UniProt:Q9UBT2; test: Inhibition of SAE in human HCT116 cells assessed as redistribution of SUMO2/3 proteins from nucleus to cytosol preincubated for 2 hrs followed by compound washout and measured immediately by immunofluorescence assay; assay type: cell-based, HCT-116
pIC50: −log10 of the molar value.
propertyMeasured: pIC50

1. NS(=O)(=O)OC[C@H]1C[C@@H](Nc2ncncc2C(=O)c2cc(C(O)c3cccc(Cl)c3)c(Cl)s2)C[C@@H]1O (stereo partly specified)    7.77
2. NS(=O)(=O)OC[C@H]1C[C@@H](Nc2ncncc2C(=O)c2cc(C3NCCc4ccc(Cl)cc43)c(Cl)s2)C[C@@H]1O (stereo partly specified)    8.05
3. NS(=O)(=O)OC[C@H]1C[C@@H](Nc2ncncc2C(=O)c2cc(C3OCCc4ccc(Cl)cc43)cs2)C[C@@H]1O (stereo partly specified)    8.15
4. NS(=O)(=O)OC[C@H]1C[C@@H](Nc2ncncc2C(=O)c2cc(C3OCCc4ccc(Cl)cc43)c(Cl)s2)C[C@@H]1O (stereo partly specified)    8.00
5. CC(O)(c1csc(C(=O)c2cncnc2N[C@@H]2C[C@H](COS(N)(=O)=O)[C@@H](O)[C@H]2O)c1)c1cccc(Br)n1 (stereo partly specified)    6.60
6. Cc1sc(C(=O)c2cncnc2N[C@@H]2C[C@H](COS(N)(=O)=O)[C@@H](O)C2)cc1Cc1cccc(Cl)c1    7.18
7. Cc1sc(C(=O)c2cncnc2N[C@@H]2C[C@H](COS(N)(=O)=O)[C@@H](O)C2)cc1C1OCCc2ccccc21 (stereo partly specified)    8.40
8. CC(O)(c1cccc(Cl)c1)c1csc(C(=O)c2cncnc2N[C@@H]2C[C@H](COS(N)(=O)=O)[C@@H](O)C2)c1 (stereo partly specified)    7.72
9. NS(=O)(=O)OC[C@H]1C[C@@H](Nc2ncncc2C(=O)c2cc(C3NCCc4ccc(Cl)cc43)cs2)C[C@@H]1O (stereo partly specified)    6.78
10. Cc1sc(C(=O)c2cncnc2N[C@@H]2C[C@H](COS(N)(=O)=O)[C@@H](O)C2)cc1C(O)c1cccc(Cl)c1 (stereo partly specified)    8.10
11. NC(c1cccc(Cl)c1)c1cc(C(=O)c2cncnc2N[C@@H]2C[C@H](COS(N)(=O)=O)[C@@H](O)C2)sc1Cl (stereo partly specified)    7.77
